Where do these numbers come from? They come from patent US20070244048A1.

- testedTarget: T1, rat NMUR1-TTG (rat, UniProt Q9JJI5 1-425)
- T1 sequence (looked up): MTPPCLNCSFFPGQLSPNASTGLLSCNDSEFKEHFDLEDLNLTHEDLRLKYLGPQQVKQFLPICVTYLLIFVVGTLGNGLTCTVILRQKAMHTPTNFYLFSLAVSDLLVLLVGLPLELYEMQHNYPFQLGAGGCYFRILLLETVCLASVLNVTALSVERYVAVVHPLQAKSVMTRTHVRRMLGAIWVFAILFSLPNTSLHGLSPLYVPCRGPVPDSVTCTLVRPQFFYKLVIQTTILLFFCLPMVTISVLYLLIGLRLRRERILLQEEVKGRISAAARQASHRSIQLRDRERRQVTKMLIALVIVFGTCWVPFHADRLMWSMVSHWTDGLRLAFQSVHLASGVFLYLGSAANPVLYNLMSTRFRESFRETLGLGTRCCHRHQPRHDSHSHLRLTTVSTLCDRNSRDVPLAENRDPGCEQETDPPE
- assayProcedure: cell-based or functional assay
Starred links: 1 amine or outer side, 2 acyl side, 3 side chain; linkers in the order of their positions; H or OH if unused. Non-standard residues stand in square brackets, D forms with d. *: point of attachment. Ttds = 1-amino-4,7,10-trioxa-13-tridecanamine succinimic acid spacer, O=C(CCC(=O)[*:2])NCCCOCCOCCOCCCN[*:1]; (PEG)2 40 kDa = branched PEG of 40 kDa linked via the Cys side-chain thiol (code C2 = Cys(PEG)2 40 kDa); Succinimide(1-Et,3-yl) = CCN1C(=O)CC(*)C1=O; Palmitoyl = CCCCCCCCCCCCCCCC(=O)*
The following binders are listed with their measured % Activity (FLIPR) values.

binder	% Activity (FLIPR), %
Ac-C((PEG)2 40 kDa)FQSPFASQSRGYFLFRPRN-NH2 [NMU20]	93.8
Ac-C(PEG 20 kDa)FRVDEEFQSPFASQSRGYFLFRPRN-NH2 [NMU21]	77.5
Ac-C((PEG)2 40 kDa)FRVDEEFQSPFASQSRGYF[dA]WRPRN-NH2 [NMU14]	36.7
Ac-C(PEG 20 kDa)C(PEG 20 kDa)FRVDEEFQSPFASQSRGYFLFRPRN-NH2 [NMU23]	39.8
Ac-C((PEG)2 40 kDa)[Ttds]FLFRPRN-NH2 [NMU16]	34.6
Palmitoyl-C((PEG)2 40 kDa)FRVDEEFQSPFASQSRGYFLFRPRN-NH2 [NMU25]	93.5
Ac-C(Succinimide(1-Et,3-yl))[Ttds]FLFRPRN-NH2 (SMILES CCN1C(=O)CC(SC[C@H](NC(C)=O)C(=O)NCCCOCCOCCOCCCNC(=O)CCC(=O)N[C@@H](Cc2ccccc2)C(=O)N[C@@H](CC(C)C)C(=O)N[C@@H](Cc2ccccc2)C(=O)N[C@@H](CCCNC(=N)N)C(=O)N2CCC[C@H]2C(=O)N[C@@H](CCCNC(=N)N)C(=O)N[C@@H](CC(N)=O)C(N)=O)C1=O) [NMU15]	108
Palmitoyl-C(Succinimide(1-Et,3-yl))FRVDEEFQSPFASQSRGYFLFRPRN-NH2 [NMU24]	67.7
